- target: recombinant TASK-3 (Homo sapiens (Human), UniProt Q9NPC2)
- Sequence (Q9NPC2 whole entry): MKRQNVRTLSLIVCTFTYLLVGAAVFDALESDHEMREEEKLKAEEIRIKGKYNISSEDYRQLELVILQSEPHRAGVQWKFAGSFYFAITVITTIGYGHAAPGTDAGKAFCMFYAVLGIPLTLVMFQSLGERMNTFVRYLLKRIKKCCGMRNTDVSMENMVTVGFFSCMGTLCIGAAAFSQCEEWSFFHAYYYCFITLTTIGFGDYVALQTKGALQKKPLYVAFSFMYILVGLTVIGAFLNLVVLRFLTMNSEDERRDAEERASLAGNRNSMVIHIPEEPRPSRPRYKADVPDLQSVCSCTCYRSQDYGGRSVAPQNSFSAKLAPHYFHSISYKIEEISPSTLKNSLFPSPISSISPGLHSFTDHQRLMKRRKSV
- method-summary: Inhibition of recombinant TASK-3 in stably transfected CHO cells (KCl-induced depolarization, voltage-sensitive dye, FLIPR)
- Assay type: cell-based
- experimental-setup: depolarization induced by 40 mM potassium chloride, some mean values from multiple determinations
pIC50: −log10 of the molar value.
Label Criterion met when pIC50 is at or above 7; otherwise label Criterion not met.

Lookup: Given the entry COc1cccc(C(=O)N2CCC3CCC2CN3Cc2c(-c3ccc(Cl)cc3)nc3ccccn23)n1 (centres unmarked) [Example 37] , answer whether its pIC50 meets or surpasses 7.
Found: Criterion not met

Lookup: pIC50 >= 7 for COc1ccc(Cl)c(C(=O)N2CCC3CCC2CN3Cc2c(-c3ccc(C(C)C)cc3)nc3ncccn23)n1 (centres unmarked) [Example 43] ?
Found: Criterion not met

Lookup: # bool: pIC50 of O=C(c1ccccc1F)N1C2CCN(Cc3c(-c4ccc(Cl)cc4)nc4ncccn34)CC1COC2 (racemic) [Example 74] >= 7
Found: Criterion not met

Lookup: Is reported pIC50 greater than or equal to 7 here: O=C(c1ccccc1F)N1C2CCC1CN(Cc1c(-c3ccc(Cl)cc3)nc3ccccn13)CC2 (single isomer, unassigned) [Example 89]
Found: Criterion met

Lookup: I'd appreciate it if you could say whether COc1cccc(C(=O)N2C3CCC2CN(Cc2c(-c4ccc(Cl)cn4)nc4ccccn24)CC3)n1 (single isomer, unassigned) [Example 84] has pIC50 at least equal to 7.
Found: Criterion met

Lookup: Does pIC50 meet or surpass 7 for O=C(c1ccccc1F)N1CCC2CCC1CN2Cc1c(-c2ccc(Cl)cc2)nc2ncccn12 (centres unmarked) [Example 22] ?
Found: Criterion not met

Lookup: Would you say CC(C)c1ccc(-c2nc3ncccn3c2CN2C3CCC2CN(C(=O)c2ccccc2F)CC3)cc1 (centres unmarked) [Example 63] shows pIC50 at minimum 7?
Found: Criterion not met

Lookup: For this compound, is measured pIC50 7 or higher? O=C(c1cccc(OC(F)(F)F)n1)N1CCC2CCC1CN2Cc1c(-c2ccc(Cl)cc2)nc2ncccn12 (centres unmarked) [Example 65]
Found: Criterion not met

Lookup: Does the reported pIC50 for Nc1nonc1C(=O)N1CCC2CCC1CN2Cc1c(-c2ccc(Cl)cc2)nc2ncccn12 (centres unmarked) [Example 35] fall at or above the 7 mark?
Found: Criterion not met

Lookup: # bool: pIC50 of COc1cccc(C(=O)N2C3CCC2CN(Cc2c(-c4ccc(Cl)cc4)nc4ncccn24)CC3)n1 (single isomer, unassigned) [Example 87] >= 7
Found: Criterion not met

Lookup: Dear colleague, could you confirm whether CC(C)c1ccc(-c2nc3ncccn3c2CN2C3CCC2CN(C(=O)C2CCCC2)CC3)cc1 (centres unmarked) [Example 62] has pIC50 at or above 7?
Found: Criterion not met

Lookup: Can COc1cccc(C(=O)N2C3CCC2CN(Cc2c(-c4ccc(Cl)cn4)nc4ccccn24)CC3)n1 (single isomer, unassigned) [Example 85] be said to have pIC50 at or above 7?
Found: Criterion not met

Lookup: Dear colleague, could you confirm whether COc1ccc(F)c(C(=O)N2C3CCC2CN(Cc2c(-c4ccc(Cl)cc4)nc4ccccn24)CC3)n1 (single isomer, unassigned) [Example 78] has pIC50 at or above 7?
Found: Criterion met

Lookup: Determine whether this compound has pIC50 no lower than 7: COc1ccc(Cl)c(C(=O)N2CCC3CCC2CN3Cc2c(-c3ccc(Cl)cc3)nc3ncccn23)n1 (centres unmarked) [Example 34]
Found: Criterion not met

----------
- target: recombinant TASK-3 (Homo sapiens (Human), UniProt Q9NPC2)
- method-summary: Inhibition of recombinant TASK-3 in stably transfected CHO cells (KCl-induced depolarization, voltage-sensitive dye, FLIPR)
- Assay type: cell-based
- experimental-setup: depolarization induced by 40 mM potassium chloride, some mean values from multiple determinations
- Protocol: The compounds of the invention were tested here with administration of 40 mM of potassium chloride in the presence of a voltage-sensitive dye using the method described in detail in the following references [Whiteaker et al., Validation of FLIPR membrane potential dye for high-throughput screening of potassium channel modulators, J. Biomol. […] The activity of the test substances was determined as their ability to inhibit a depolarization induced in the recombinant cells by 40 mM potassium chloride. […]
pIC50: −log10 of the molar value.
Please use class 1 whenever pIC50 is not below 7, and class 0 whenever it is.

Some solved cases for reference:
Lookup: Hi team, for O=C(c1cccc(OC(F)F)n1)N1CCC2CCC1CN2Cc1c(-c2ccc(Cl)cc2)nc2ncccn12 (centres unmarked) [Example 67] , is the recorded pIC50 at or above 7?
Found: class 0

Lookup: Check this compound for pIC50 at or above 7: Nc1nonc1C(=O)N1C2CCN(Cc3c(-c4ccc(Cl)cc4)nc4ncccn34)CC1COC2 (racemic) [Example 77]
Found: class 0

Lookup: Can COc1ccc(F)c(C(=O)N2C3CCN(Cc4c(-c5ccc(Cl)cc5)nc5ccccn45)CC2COC3)n1 (single isomer, unassigned) [Example 11] be said to have pIC50 at or above 7?
Found: class 1

Lookup: Say whether COc1ccc(Cl)c(C(=O)N2C3CCC2CN(Cc2c(-c4ccc(Cl)cn4)nc4ccccn24)CC3)n1 (racemic) [Example 100] shows pIC50 of 7 or more.
Found: class 1

Lookup: Is pIC50 for O=C(c1ccccc1F)N1CCC2CCC1CN2Cc1c(-c2ccc(Cl)cn2)nc2ccccn12 (centres unmarked) [Example 30] at or above 7?
Found: class 0

---
Lookup: Does the reported pIC50 for COc1ccc(Cl)c(C(=O)N2C3CCC2CN(Cc2c(-c4ccc(Cl)cc4)nc4ncccn24)CC3)n1 (racemic) [Example 99] fall at or above the 7 mark?
Found: class 1

Lookup: Dear colleague, could you confirm whether COc1cccc(C(=O)N2CCC3CCC(C2)N3Cc2c(-c3ccc(C(C)C)cc3)nc3ncccn23)n1 (centres unmarked) [Example 55] has pIC50 at or above 7?
Found: class 0

Lookup: I'd appreciate it if you could say whether COc1cccc(C(=O)N2CC3CCC2CN(Cc2c(-c4ccc(Cl)cc4)nc4ccccn24)C3)n1 (single isomer, unassigned) [Example 95] has pIC50 at least equal to 7.
Found: class 0

Lookup: Threshold query (pIC50 >= 7) on COc1ccc(F)c(C(=O)N2C3CCC2CN(Cc2c(-c4ccc(C(C)C)cc4)nc4ncccn24)CC3)n1 (centres unmarked) [Example 103]
Found: class 0

Lookup: Does pIC50 meet or surpass 7 for O=C(c1cccc(OC(F)(F)F)n1)N1CCC2CCC1CN2Cc1c(-c2ccc(Cl)cc2)nc2ncccn12 (centres unmarked) [Example 66] ?
Found: class 1

Lookup: Hi, just wondering whether COc1ccc(Cl)c(C(=O)N2CCC3CCC2CN3Cc2c(-c3ccc(Cl)cc3)nc3ncccn23)n1 (centres unmarked) [Example 23] shows pIC50 of 7 or higher.
Found: class 1

Lookup: Quick check, pIC50 >= 7? CC(C)c1ccc(-c2nc3ncccn3c2CN2C3CCC2CN(C(=O)c2cccc(OC(F)F)n2)CC3)cc1 (centres unmarked) [Example 61]
Found: class 0

Lookup: Say whether Nc1nonc1C(=O)N1CCC2CCC1CN2Cc1c(-c2ccc(Cl)cc2)nc2ccccn12 (centres unmarked) [Example 29] shows pIC50 of 7 or more.
Found: class 1

----------
- target: recombinant TASK-1 (Homo sapiens (Human))
- Sequence (O14649 whole entry): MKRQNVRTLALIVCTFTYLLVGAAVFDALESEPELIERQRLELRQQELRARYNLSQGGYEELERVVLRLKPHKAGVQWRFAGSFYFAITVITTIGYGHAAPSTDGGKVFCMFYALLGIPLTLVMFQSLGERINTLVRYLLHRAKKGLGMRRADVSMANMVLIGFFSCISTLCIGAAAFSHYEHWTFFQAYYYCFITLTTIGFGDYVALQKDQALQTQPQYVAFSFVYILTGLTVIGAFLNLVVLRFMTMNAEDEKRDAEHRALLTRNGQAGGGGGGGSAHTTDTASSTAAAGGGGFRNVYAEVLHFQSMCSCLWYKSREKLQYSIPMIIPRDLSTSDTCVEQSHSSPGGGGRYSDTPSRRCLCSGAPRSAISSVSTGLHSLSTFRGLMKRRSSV
- method-summary: Inhibition of recombinant TASK-1 in stably transfected CHO cells (KCl-induced depolarization, voltage-sensitive dye, FLIPR)
- Type: cell-based
- experimental-setup: depolarization induced by 40 mM potassium chloride, some mean values from multiple determinations
Known pIC50 of a selection of compounds
Quick note: pIC50 means taking -log10 of the concentration in moles per liter.

Known results for compounds:
Lookup: Request: pIC50, test system recombinant TASK-1 (Homo sapiens (Human)), entry COc1ccc(Cl)c(C(=O)N2CCC3CCC(C2)N3Cc2c(-c3ccc(C(C)C)cc3)nc3ncccn23)n1 (stereo not drawn) [Example 54]
Found: 6.11

Lookup: Missing value: pIC50, recombinant TASK-1 (Homo sapiens (Human)), entry CC(C)c1ccc(-c2nc3ncccn3c2CN2CC3CCC2CCN3C(=O)c2ccccc2F)cc1 (stereo not drawn) [Example 46] . Fill in?
Found: 4.80

Lookup: Write down the reported pIC50 of COc1cccc(C(=O)N2CCC3CCC2CN3Cc2c(-c3ccc(Cl)cc3)nc3ncccn23)n1 (stereo not drawn) [Example 21] , test system: recombinant TASK-1 (Homo sapiens (Human)).
Found: 4.74

Lookup: Recall the recorded pIC50 for CC(C)c1ccc(-c2nc3ncccn3c2CN2C3CCC2CN(C(=O)C2CCCC2)CC3)cc1 (stereo not drawn) [Example 57] with recombinant TASK-1 (Homo sapiens (Human)) and state it.
Found: 5.21

Lookup: API: value(readout=pIC50, system=recombinant TASK-1 (Homo sapiens (Human))) for record COc1ccc(Cl)c(C(=O)N2CCC3CCC2CN3Cc2c(-c3ccc(Cl)cc3)nc3ncccn23)n1 (stereo not drawn) [Example 34]
Found: 5.39

Others:
Lookup: Give recombinant TASK-1 (Homo sapiens (Human)) pIC50 for COc1ccc(F)c(C(=O)N2C3CCN(Cc4c(-c5ccc(Cl)cc5)nc5ccccn45)CC2COC3)n1 (single isomer, unassigned) [Example 12]
Found: 7.22

Lookup: For recombinant TASK-1 (Homo sapiens (Human)), provide pIC50 of COc1ccc(F)c(C(=O)N2C3CCC2CN(Cc2c(-c4ccc(Cl)cc4)nc4ccccn24)CC3)n1 (single isomer, unassigned) [Example 78] please.
Found: 6.66

Lookup: Report pIC50 for COc1ccc(F)c(C(=O)N2C3CCN(Cc4c(-c5ccc(Cl)cc5)nc5ccccn45)CC2COC3)n1 (single isomer, unassigned) [Example 11] tested on recombinant TASK-1 (Homo sapiens (Human)).
Found: 6.95

Lookup: Requested read-out pIC50, target or system recombinant TASK-1 (Homo sapiens (Human)), entry O=C(c1ccccc1F)N1CCC2CCC1CN2Cc1c(-c2ccc(Cl)cc2)nc2ncccn12 (stereo not drawn) [Example 22]
Found: 4.57

Lookup: What is its pIC50 for recombinant TASK-1 (Homo sapiens (Human))? Entry: CC(C)c1ccc(-c2nc3ncccn3c2CN2CC3CCC2CCN3C(=O)C2CCCC2)cc1 (stereo not drawn) [Example 52]
Found: 5.42

Lookup: Record COc1ccc(F)c(C(=O)N2CC3CCC2CN(Cc2c(-c4ccc(Cl)cc4)nc4ccccn24)C3)n1 (single isomer, unassigned) [Example 94] : what is its pIC50 with recombinant TASK-1 (Homo sapiens (Human))?
Found: 5.49

Lookup: Item: Nc1nonc1C(=O)N1CCC2CCC1CN2Cc1c(-c2ccc(Cl)cc2)nc2ncccn12 (stereo not drawn) [Example 35] Test system: recombinant TASK-1 (Homo sapiens (Human)) Read-out: pIC50 Value: ?
Found: 4.62
